Data origin, for the record: the supplement of paper PMC9112550

test system: Escherichia coli TOP10; experiment: shrunken log2 fold change of peptide-encoding DNA abundance (4.5 h post-induction vs induction); higher = less antimicrobial activity (less host growth inhibition); conditions: time post-induction: 4.5 h; library: site-saturation at positions 5, 18, 19, 20;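 further: peptides expressed intracellularly from a pBAD plasmid library in pooled LB shake-flask culture, induced with 0.3% L-arabinose, DNA abundance read by NGS, three biological replicates, DESeq2 with apeglm shrinkage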
Heads up, the class ranges for shrunken log2 fold change are lowest = under -0.1, middle = from -0.1 up to 0.1, highest = 0.1 and over

1. RRIRGRPPRLPRPRPRPTHPPRP : highest
2. RRIRWRPPRLPRPRPRPAPGPRP : highest
3. RRIRRRPPRLPRPRPRPRYLPRP : middle
4. RRIRHRPPRLPRPRPRPGNEPRP : lowest
5. RRIRNRPPRLPRPRPRPIYLPRP : lowest
6. RRIRFRPPRLPRPRPRPVGWPRP : highest
7. RRIRGRPPRLPRPRPRPRMIPRP : highest
8. RRIRYRPPRLPRPRPRPCSVPRP : lowest
9. RRIRARPPRLPRPRPRPTKYPRP : lowest
10. RRIRARPPRLPRPRPRPPRTPRP : highest
11. RRIRARPPRLPRPRPRPSIHPRP : lowest
12. RRIRNRPPRLPRPRPRPGTPPRP : highest
13. RRIRFRPPRLPRPRPRPWWEPRP : middle
14. RRIRYRPPRLPRPRPRPRGGPRP : highest
15. RRIRRRPPRLPRPRPRPERGPRP : highest
16. RRIRARPPRLPRPRPRPSNLPRP : lowest
17. RRIRKRPPRLPRPRPRPRWSPRP : highest
18. RRIRARPPRLPRPRPRPMYKPRP : lowest
19. RRIRTRPPRLPRPRPRPKRCPRP : middle
20. RRIRFRPPRLPRPRPRPYCEPRP : middle
21. RRIRVRPPRLPRPRPRPCHTPRP : middle
22. RRIRIRPPRLPRPRPRPTAEPRP : middle
23. RRIRMRPPRLPRPRPRPRPRPRP : highest
24. RRIRWRPPRLPRPRPRPRHPPRP : highest
25. RRIRNRPPRLPRPRPRPYSVPRP : middle
26. RRIRNRPPRLPRPRPRPRITPRP : middle
27. RRIRNRPPRLPRPRPRPVYKPRP : lowest
28. RRIRIRPPRLPRPRPRPGNQPRP : lowest
29. RRIRERPPRLPRPRPRPEGYPRP : middle
30. RRIRGRPPRLPRPRPRPMMNPRP : highest
31. RRIRERPPRLPRPRPRPCSEPRP : middle
32. RRIRSRPPRLPRPRPRPVPRPRP : highest
33. RRIRVRPPRLPRPRPRPRMTPRP : highest
34. RRIRQRPPRLPRPRPRPFQCPRP : lowest
35. RRIRTRPPRLPRPRPRPILWPRP : middle
36. RRIRVRPPRLPRPRPRPQNWPRP : middle
37. RRIRVRPPRLPRPRPRPTCKPRP : middle
38. RRIRMRPPRLPRPRPRPVPLPRP : middle
39. RRIRLRPPRLPRPRPRPALTPRP : highest
40. RRIRYRPPRLPRPRPRPRPMPRP : lowest
41. RRIRYRPPRLPRPRPRPEVCPRP : middle
42. RRIRRRPPRLPRPRPRPCKQPRP : middle
43. RRIRGRPPRLPRPRPRPCDPPRP : highest
44. RRIRWRPPRLPRPRPRPMCQPRP : highest
45. RRIRLRPPRLPRPRPRPPYHPRP : lowest
46. RRIRSRPPRLPRPRPRPGYVPRP : lowest
47. RRIRFRPPRLPRPRPRPWVIPRP : lowest
48. RRIRMRPPRLPRPRPRPAVPPRP : highest
49. RRIRMRPPRLPRPRPRPEKTPRP : middle
50. RRIRSRPPRLPRPRPRPKNMPRP : lowest
51. RRIRNRPPRLPRPRPRPGSIPRP : middle
52. RRIRRRPPRLPRPRPRPMKKPRP : middle
53. RRIRKRPPRLPRPRPRPYEKPRP : middle
54. RRIRGRPPRLPRPRPRPMKYPRP : middle
55. RRIRGRPPRLPRPRPRPLHAPRP : highest
56. RRIRYRPPRLPRPRPRPLQYPRP : lowest
57. RRIRVRPPRLPRPRPRPRCCPRP : highest
58. RRIRYRPPRLPRPRPRPLCAPRP : lowest
59. RRIRYRPPRLPRPRPRPINHPRP : lowest
60. RRIRARPPRLPRPRPRPNDLPRP : highest
61. RRIRKRPPRLPRPRPRPQKYPRP : lowest
62. RRIRYRPPRLPRPRPRPYQNPRP : lowest
